Recorded values, source patent US12263177B2.

Tested on: MDA-MB-231 TNBC cells
Measurement description: Cell viability assay (CellTiter-Glo or PI staining)
Format: cell-based
Conditions: Homo sapiens, MDA-MB-231, read-out: EC50, MDA-MB-231 cell viability; FIG. 4E
Metric: EC50 (µM)
Give the value, in units of µM, as a plain number.

Form field: EC50 recorded for CC(C)[C@@H](C)/C=C/[C@@H](C)[C@H]1CC[C@@H]2[C@]1(C)CC[C@H]1[C@]23C=C[C@]2(C[C@@H](O)CC[C@]12C)OO3 [EP, ergosterol peroxide] with MDA-MB-231 TNBC cells (enter value) 19

====

Test system: SUM-190 IBC cells
Measurement description: Cell viability assay (CellTiter-Glo or PI staining)
Format: cell-based
Conditions: SUM190; FIG. 4E
Metric: EC50

For CC(C)[C@@H](C)/C=C/[C@@H](C)[C@H]1CC[C@@H]2[C@]1(C)CC[C@H]1[C@]23C=C[C@]2(C[C@@H](O)CC[C@]12C)OO3 [EP, ergosterol peroxide] , what is its reported EC50? 43 µM
